Where do the numbers come from? From patent US20230331803A1.

Catalogue of EC50 values
# measured.on: human GLP-1 receptor (Homo sapiens, UniProt P43220)
# Construct: expressed in transfected cells; host or cells: BHK (Baby Hamster Kidney) cells, clone BHK 467-12A KZ-10, stably transfected, with CRE-luciferase reporter
# Sequence (P43220 24-463): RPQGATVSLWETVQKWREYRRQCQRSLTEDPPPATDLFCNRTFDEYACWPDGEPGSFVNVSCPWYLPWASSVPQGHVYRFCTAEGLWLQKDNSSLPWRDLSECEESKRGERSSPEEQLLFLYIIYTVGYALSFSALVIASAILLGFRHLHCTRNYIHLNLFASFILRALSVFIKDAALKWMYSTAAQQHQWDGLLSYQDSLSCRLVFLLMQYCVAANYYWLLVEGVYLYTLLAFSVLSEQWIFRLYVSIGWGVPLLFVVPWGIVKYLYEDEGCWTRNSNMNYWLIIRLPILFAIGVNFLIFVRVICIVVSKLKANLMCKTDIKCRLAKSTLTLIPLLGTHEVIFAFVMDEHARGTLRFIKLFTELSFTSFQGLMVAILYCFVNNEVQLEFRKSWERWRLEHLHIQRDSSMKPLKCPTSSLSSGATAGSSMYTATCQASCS
# procedure.details: Human GLP-1 receptor in vitro potency assay (CRE-luciferase reporter, BHK cells)
# Type: cell-based
# settings: Table 4a; BHK cells expressing human GLP-1R, CRE-Luc, 3 hours; read-out: Human GLP-1R potency [EC50 (pM)]
Starred links: 1 amine or outer side, 2 acyl side, 3 side chain; linkers in the order of their positions; H or OH if unused. Non-standard residues stand in square brackets, D forms with d. Groups on a side chain read outwards from the residue. *: point of attachment. C20 diacid = O=C(O)CCCCCCCCCCCCCCCCCCC(=O)*; C18 diacid = O=C(O)CCCCCCCCCCCCCCCCC(=O)*; γGlu = O=C(O)[C@H](CCC(=O)[*:2])N[*:1]; εLys = N[C@@H](CCCCN[*:1])C(=O)[*:2]; Trx = NC[C@H]1CC[C@H](C(=O)O)CC1; AEEA = NCCOCCOCC(=O)O; Aib = CC(C)(N)C(=O)O
Dear colleague, please return just the value in pM, with no unit written.

Some solved entries appear below for comparison.
H[Aib]EGTFTSDVSSYLEEQAARK([AEEA-AEEA-γGlu-C18 diacid])FIAWLVRGK([AEEA-AEEA-γGlu-C18 diacid])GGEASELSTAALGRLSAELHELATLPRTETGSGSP-NH2 [Compound 0127] ... 7.1
HWEGTFTSDVSSYLEEK([εLys-AEEA-AEEA-γGlu-Trx-C20 diacid])AAREFIEWLVRGRGEASELSTAALGRLSAELHELATLPRTETGSGSP-NH2 [Compound 0434] ... 11.8

Continue with the substance presented below.
Give EC50 (human GLP-1 receptor (Homo sapiens, UniProt P43220)) of the following substance: H-H[Aib]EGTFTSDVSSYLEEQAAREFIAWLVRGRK([εLys-AEEA-AEEA-γGlu-C20 diacid])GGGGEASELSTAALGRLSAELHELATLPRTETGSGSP-NH2 [Compound 0552]
4.7

###

# procedure.details: Pharmacokinetic studies in Beagle dogs after oral administration of SNAC-based tablets
# Assay type: in vivo
# settings: dogs, oral administration (tablet)
# Protocol: To be able to evaluate oral exposure following tablet dosing, tablet compositions comprising the test substance and SNAC (sodium N-(8-(2-hydroxybenzoyl)amino)caprylate) were prepared by mixing test substance with roller compacted SNAC and magnesium stearate as, e.g., described in WO 2019/149880. […] Plasma concentration of the GLP-1 receptor-amylin receptor co-agonists were determined using LCMS. Individual plasma concentration-time profiles were analysed by a non-compartmental model in WinNonlin v. […]
Starred links: 1 amine or outer side, 2 acyl side, 3 side chain; linkers in the order of their positions; H or OH if unused. Groups on a side chain read outwards from the residue. *: point of attachment. Decanoyl(10-(4-HOOC-PhO)) = O=C(O)c1ccc(OCCCCCCCCCC(=O)*)cc1; γGlu = O=C(O)[C@H](CCC(=O)[*:2])N[*:1]; AEEA = NCCOCCOCC(=O)O
readout: AUC/D (kg·h/L)
Dear colleague, please return just the value in kg·h/L, with no unit written.

H-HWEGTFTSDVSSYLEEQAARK([AEEA-AEEA-γGlu-Decanoyl(10-(4-HOOC-PhO))])FIEWLVRGRGEGGGGGASELSTAALGRLSK([AEEA-AEEA-γGlu-Decanoyl(10-(4-HOOC-PhO))])ELHELATLPRTETGSGSP-NH2 [Compound 0231] ... 0.83

Continue with the substance presented below.
For the substance H-HWEGTFTSDVSSYLEEQAAREFIEWLVRGK([AEEA-AEEA-γGlu-Decanoyl(10-(4-HOOC-PhO))])GEGGGGGASELSTAALGRLSAELHELK([AEEA-AEEA-γGlu-Decanoyl(10-(4-HOOC-PhO))])TLPRTETGSGSP-NH2 [Compound 0234] , what AUC/D is on record?
8.00
